meta.source: paper PMC8453901

test: Study 2 part 1: effect of aging on pharmacokinetics, 50 mg once daily for 14 days; assay type: in vivo, human; conditions: male, human, plasma, oral, 50 mg, 50 mg once daily, cohort B ≥75 y, day 14; mean (CV%); read-out: t1/2,λz (converted)
Endpoint: half-life (h)
Respond numerically; units are h and should not be typed.

Recorded result, `O=c1nc(OC[C@@H]2COCCO2)cc2n1CCc1cc(C#CC3CC3)ccc1-2` , half-life: 64.5

====

experiment: Study 2 part 1: effect of aging on pharmacokinetics, 50 mg once daily for 14 days; type: in vivo, human; details: male, human, plasma, oral, 50 mg, 50 mg once daily for 14 days, all 3 age groups
Endpoint: Tmax

Recorded result, O=c1nc(OC[C@@H]2COCCO2)cc2n1CCc1cc(C#CC3CC3)ccc1-2 [GLPG1205] , Tmax: 2 to 3 h

====

experiment: Study 1 MAD part: plasma and urine pharmacokinetics, once daily for 14 days; assay type: in vivo, human; details: male, human, plasma, oral, 200/150 mg once daily, day 14, n = 3; dosing interval 24 hours; mean (CV%)
Endpoint: AUC (µg·h/mL)
Respond numerically; units are µg·h/mL and should not be typed.

Recorded result, `O=c1nc(OC[C@@H]2COCCO2)cc2n1CCc1cc(C#CC3CC3)ccc1-2` , AUC: 195

====

test: Study 2 part 2: pharmacokinetics with 250-mg loading dose then 50 mg once daily; type: in vivo, human; details: human, plasma, oral; day 35, 504 hours after the last dose, subjects in whom still quantifiable; read-out: plasma GLPG1205 level at follow-up
Endpoint: concentration at 504 h

Recorded result, `O=c1nc(OC[C@@H]2COCCO2)cc2n1CCc1cc(C#CC3CC3)ccc1-2` , concentration at 504 h: 2.01 to 21.6 ng/mL

====

assay: Study 1 SAD part: plasma pharmacokinetics after single oral doses; type: in vivo, human; details: male, human, plasma, oral; single 600 mg; arithmetic mean (CV%); read-out: C24h
Endpoint: concentration at 24 h (ng/mL)
Respond numerically; units are ng/mL and should not be typed.

Recorded result, `O=c1nc(OC[C@@H]2COCCO2)cc2n1CCc1cc(C#CC3CC3)ccc1-2` , concentration at 24 h: 3410

====

assay: Study 1 SAD part: plasma pharmacokinetics after single oral doses; type: in vivo, human; settings: male, human, plasma, oral; single 200 mg; arithmetic mean (CV%), N = 4
Endpoint: AUC(0-inf) (µg·h/mL)
Respond numerically; units are µg·h/mL and should not be typed.

Recorded result, O=c1nc(OC[C@@H]2COCCO2)cc2n1CCc1cc(C#CC3CC3)ccc1-2 [GLPG1205] , AUC(0-inf): 120
